pIC50: −log10 of the molar value.
Compiled record: pIC50 values for Platelet-derived growth factor receptor beta (Homo sapiens) across several sources.
parameter.measured: pIC50

INSERT INTO measurements (compound, measured_target, measured_value) VALUES
  ('COc1ccc(-c2ccc(NC(=O)Nc3cccc(C(F)(F)F)c3)cc2)c2c(N)noc12', 'Platelet-derived growth factor receptor beta (Homo sapiens)', 6.89),
  ('COc1cccc(NC(=O)Cn2cc(Nc3ncnc4cc(OC)c(OC)cc34)cn2)c1', 'Platelet-derived growth factor receptor beta (Homo sapiens)', 8.00),
  ('O=C1Nc2ccccc2/C1=C/c1ccc(O)cc1', 'Platelet-derived growth factor receptor beta (Homo sapiens)', '< 4.00'),
  ('Nc1ncnc2c1c(C(=O)c1cccc(NC(=O)Nc3c(F)cccc3F)c1)cn2C1CCCC1', 'Platelet-derived growth factor receptor beta (Homo sapiens)', '< 5.30'),
  ('COc1cc2c(Oc3ccc(NC(=O)NS(=O)(=O)Cc4ccc(F)cc4)cc3F)ccnc2cc1OCCCN1CCCC1', 'Platelet-derived growth factor receptor beta (Homo sapiens)', 6.45),
  ('CCNC(CS(C)(=O)=O)c1ccc(-c2ccc3ncnc(Nc4ccc(OCc5cccc(F)c5)c(Cl)c4)c3c2)o1 (racemic)', 'Platelet-derived growth factor receptor beta (Homo sapiens)', '< 3.70'),
  ('CCCCCCCCCCCCCCCCN1C(=O)c2cccc3c(NCCNCCN(C)C)ccc(c23)C1=O', 'Platelet-derived growth factor receptor beta (Homo sapiens)', '< 4.30'),
  ('CCS(=O)(=O)c1ccc2c(c1)/C(=C/c1[nH]c3c(c1CCCN1CCN(CCO)CC1)CCCC3)C(=O)N2', 'Platelet-derived growth factor receptor beta (Homo sapiens)', 5.05),
  ('Cc1cc(NC(=O)c2ccc(C)c(Nc3nccc(-c4cccnc4)n3)c2)cc(-n2cnc(C)c2)c1', 'Platelet-derived growth factor receptor beta (Homo sapiens)', 6.11),
  ('C#Cc1cccc(Nc2ncnc3c2/C(=C/c2[nH]c(C(=O)NCCN4CCOCC4)cc2C)C(=O)N3)c1', 'Platelet-derived growth factor receptor beta (Homo sapiens)', '< 4.70'),
  ('O=C1Nc2ccc(F)cc2/C1=C/c1[nH]cc2c1CCOC2=O', 'Platelet-derived growth factor receptor beta (Homo sapiens)', '< 4.70'),
  ('Cc1n[nH]c2ccc(-c3cc(N[C@@H](CO)c4ccccc4)cnc3Cl)cc12', 'Platelet-derived growth factor receptor beta (Homo sapiens)', '< 6.00'),
  ('COc1ccc2c(c1)/C(=C/c1[nH]cc3c1CCOC3=O)C(=O)N2', 'Platelet-derived growth factor receptor beta (Homo sapiens)', '< 4.70'),
  ('O=C(NCCO)C1=Cc2c(ncnc2Nc2ccc(Oc3cccc4sccc34)c(Cl)c2)NCC1', 'Platelet-derived growth factor receptor beta (Homo sapiens)', '< 5.00'),
  ('CCOC(=O)CCc1c(/C=C2\C(=O)Nc3ccc(NS(=O)(=O)c4ccccc4)cc32)[nH]c2c1C(=O)CCC2', 'Platelet-derived growth factor receptor beta (Homo sapiens)', '< 6.00'),
  ('CONC(=O)c1cn(-c2ccc3c(c2)CCC3)c2nc(Nc3ccc(C4CCN(CC(=O)O)CC4)cc3)ncc2c1=O', 'Platelet-derived growth factor receptor beta (Homo sapiens)', '< 5.70');
